- targetOfAssay: T1, His-tagged ectodomain of human transferrin receptor 1 (hTfR1, R121-F760) (human, UniProt P02786 121-760)
- T1 construct: Made in CHO cells; Biotinylated for some uses; also called human TfR1
- T1 sequence (P02786 other isoform, or with tags, fused parts or gaps limits assumed): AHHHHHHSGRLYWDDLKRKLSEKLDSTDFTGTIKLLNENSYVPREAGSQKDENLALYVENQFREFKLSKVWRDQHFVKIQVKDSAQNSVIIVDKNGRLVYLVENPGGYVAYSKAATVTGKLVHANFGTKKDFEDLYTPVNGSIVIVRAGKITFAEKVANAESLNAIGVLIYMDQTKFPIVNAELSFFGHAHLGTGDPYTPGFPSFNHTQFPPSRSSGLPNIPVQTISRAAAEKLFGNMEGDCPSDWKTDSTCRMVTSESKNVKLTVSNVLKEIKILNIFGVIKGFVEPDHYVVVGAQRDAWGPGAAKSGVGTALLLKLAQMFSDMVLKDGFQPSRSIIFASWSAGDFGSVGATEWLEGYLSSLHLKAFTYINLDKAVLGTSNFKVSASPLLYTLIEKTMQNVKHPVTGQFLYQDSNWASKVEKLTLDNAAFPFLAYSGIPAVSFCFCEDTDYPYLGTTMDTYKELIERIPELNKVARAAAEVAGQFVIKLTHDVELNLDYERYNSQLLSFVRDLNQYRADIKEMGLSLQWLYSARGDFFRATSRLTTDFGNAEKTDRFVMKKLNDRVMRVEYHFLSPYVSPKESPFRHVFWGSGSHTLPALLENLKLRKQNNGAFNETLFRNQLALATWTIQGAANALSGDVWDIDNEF
- protocolSummary: SPR Biacore 8K single-cycle; hTfR1 amine-coupled to CM5 chip, fusion as analyte
attributeMeasured: kon (M⁻¹ s⁻¹)
Return type: number; implicit unit M⁻¹ s⁻¹.

Worked set:
- binder: "BV-scFv (benchmark VHH BV at the N-terminus of 3D6 scFv) (bispecific antibody) EVQLVESGGGVVQPGGSLKLSCVASGTDFSINFIRWYRQAPGKQREFVAGFTATGNTNYADSMKGRFTISRDNTKNAVYLQIDSLKPEDTAVYYCYMLDKWGQGTQVTVSSGGGGSGGGGSGGGGSEVKLVESGGGLVKPGASLKLSCAASGFTFSNYGMSWVRQNSDKRLEWVASIRSGGGRTYYSDNVKGRFTISRENAKNTLYLQMSSLKSEDTALYYCVRYDHYSGSSDYWGQGTTVTVSGGGGSGGGGSGGGGSYVVMTQTPLTLSVTIGQPASISCKSSQSLLDSDGKTYLNWLLQRPGQSPKRLIYLVSKLDSGVPDRFTGSGSGTDFTLKISRIEAEDLGLYYCWQGTHFPRTFGGGTKLEIKGSENLYFQSHHHHHH"
  unitSymbol: "M⁻¹ s⁻¹"
  measured: 617000
- binder: "scFv-BV (3D6 scFv at the N-terminus of benchmark VHH BV) (bispecific antibody, also called scFc-BV) EVKLVESGGGLVKPGASLKLSCAASGFTFSNYGMSWVRQNSDKRLEWVASIRSGGGRTYYSDNVKGRFTISRENAKNTLYLQMSSLKSEDTALYYCVRYDHYSGSSDYWGQGTTVTVSGGGGSGGGGSGGGGSYVVMTQTPLTLSVTIGQPASISCKSSQSLLDSDGKTYLNWLLQRPGQSPKRLIYLVSKLDSGVPDRFTGSGSGTDFTLKISRIEAEDLGLYYCWQGTHFPRTFGGGTKLEIKGGGGSGGGGSGGGGSEVQLVESGGGVVQPGGSLKLSCVASGTDFSINFIRWYRQAPGKQREFVAGFTATGNTNYADSMKGRFTISRDNTKNAVYLQIDSLKPEDTAVYYCYMLDKWGQGTQVTVSSGSENLYFQSHHHHHH"
  unitSymbol: "M⁻¹ s⁻¹"
  measured: 175000
- binder: "scFv-KB_B01 (3D6 scFv at the N-terminus of KB_B01) (bispecific antibody, also called scFv-VHH) EVKLVESGGGLVKPGASLKLSCAASGFTFSNYGMSWVRQNSDKRLEWVASIRSGGGRTYYSDNVKGRFTISRENAKNTLYLQMSSLKSEDTALYYCVRYDHYSGSSDYWGQGTTVTVSGGGGSGGGGSGGGGSYVVMTQTPLTLSVTIGQPASISCKSSQSLLDSDGKTYLNWLLQRPGQSPKRLIYLVSKLDSGVPDRFTGSGSGTDFTLKISRIEAEDLGLYYCWQGTHFPRTFGGGTKLEIKGGGGSGGGGSGGGGSQVQLQESGGGLVQAGGSLRLSCAASGTPFSNNYMRWYRQAPGKQREWVAGFTSGGSTNYADSVKGRFTISRDNAEGTVYLQMDNLKPEDTAVYYCYFLDVWGQGTQVTVSSGSENLYFQSHHHHHH"
  unitSymbol: "M⁻¹ s⁻¹"
  measured: 144000

Please look at the following binder next.
What measured kon goes with KB_B01-scFv (KB_B01 at the N-terminus of 3D6 scFv) (bispecific antibody, also called VHH-scFv) QVQLQESGGGLVQAGGSLRLSCAASGTPFSNNYMRWYRQAPGKQREWVAGFTSGGSTNYADSVKGRFTISRDNAEGTVYLQMDNLKPEDTAVYYCYFLDVWGQGTQVTVSSGGGGSGGGGSGGGGSEVKLVESGGGLVKPGASLKLSCAASGFTFSNYGMSWVRQNSDKRLEWVASIRSGGGRTYYSDNVKGRFTISRENAKNTLYLQMSSLKSEDTALYYCVRYDHYSGSSDYWGQGTTVTVSGGGGSGGGGSGGGGSYVVMTQTPLTLSVTIGQPASISCKSSQSLLDSDGKTYLNWLLQRPGQSPKRLIYLVSKLDSGVPDRFTGSGSGTDFTLKISRIEAEDLGLYYCWQGTHFPRTFGGGTKLEIKGSENLYFQSHHHHHH ?
535000
